assay: Half life in phosphate buffer at pH 7.4; type: physicochemical
MEASURED_QUANTITY: half-life

[[record]]
test_smiles = "CC(=O)Oc1cccc2c1C(=O)c1c(OC(C)=O)cc(C(=O)Oc3cc(C)ccc3C(C)C)cc1C2=O"
measured_quantity = "half-life"
result = "3.22 h"


====

experiment: Half life in Wistar rat small intestine homogenate; format: ADME, tissue-based
MEASURED_QUANTITY: half-life (h)

[[record]]
test_smiles = "CC(=O)Oc1cccc2c1C(=O)c1c(OC(C)=O)cc(C(=O)Oc3cc(C)ccc3C(C)C)cc1C2=O"
measured_quantity = "half-life"
measured_number = 2.8

